Entries annotated with measured bioavailability
# assay: Oral bioavailability in Wistar Han rat at 10 mg/kg
# Assay type: ADME, organism-based
# details: in vivo
Report as a plain number; the unit % is understood.

Reference set, count: 2
1. CCC(=O)CCCCC[C@H](NC(=O)[C@H]1CC12CCN(C)CC2)c1ncc(-c2cc3ccccc3nc2OC)[nH]1 | 13
2. CCC(=O)CCCCC[C@H](NC(=O)[C@H]1CC12CCN(CC)CC2)c1ncc(-c2cc3ccccc3nc2OC)o1 | 68.9

Continue with the molecule presented below.
Query: Entry under review: CCC(=O)CCCCC[C@H](NC(=O)[C@H]1CC12CCN(C)CC2)c1ncc(-c2cc3ccccc3nc2OC)o1 . Reported bioavailability?
Result: 20.6

The measurements presented in this section are drawn from ChEMBL document CHEMBL4622849.
